Target: GLP-1 receptor (human (printed as hGLP1R), UniProt P43220 24-463)
Test: cell-based or functional assay
Non-standard residues stand in square brackets, D forms with d. No end group written: not given here. Aib = CC(C)(N)C(=O)O
ENDPOINT: EC50 hGLP1R 0.5% hP (CreLuc) (nM)
Please reply with the bare figure in nM and do not write the unit itself.

Consider the reported EC50 hGLP1R 0.5% hP (CreLuc) for these binders:
| BINDER | OBSERVED_MEASUREMENT |
| --- | --- |
| YXEGTFTSDYSIXLEKQAQXAFVEWLIKGGPSTGASLRHYYNWLTRQRY (Aib at 2, 13, 20; K28 side chain carries C20DA-gGlu-gGlu-gGlu-gGlu-gGlu-gGlu-eLys; C-terminal amide) [Compound 244] | 0.19 |
| YXEGTFTSDYSIXLEKQAQXAFVEWLIKGGPSSGASLRHYYNWLTRXRY (Aib at 2, 13, 20; bHGln (beta-homo-L-glutamine) at 47; K28 side chain carries C20DA-gGlu-gGlu-gGlu-gGlu-gGlu-gGlu-eLys; C-terminal amide) [Compound 208] | 0.11 |
| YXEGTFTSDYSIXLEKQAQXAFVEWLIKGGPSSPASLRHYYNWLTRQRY (Aib at 2, 13, 20; K28 side chain carries C18DA-gGlu-gGlu-gGlu-gGlu-gGlu; C-terminal amide) [Compound 180] | 0.1 |
| YXEGTFTSDYSIXLEKQAQXEFVEWLIKGGPSSGASLRHYYNWLTRQRY (Aib at 2, 13, 20; K28 side chain carries C20DA-gGlu-gGlu-gGlu-gGlu-gGlu-gGlu-eLys; C-terminal amide) [Compound 215] | 0.66 |

Next up:
Y[Aib]EGTFTSDYSI[Aib]LEKQAQ[Aib]EFVEWLIKGGPSSGASLRHYYNWLTRQRY-NH2 (not fully specified (residue 28); also: TFA salt) [Compound 201] has a reported EC50 hGLP1R 0.5% hP (CreLuc) of 0.28
